Below: a set of entries, each annotated with reported Activity.
target-entity: DNA topoisomerase 1 (Homo sapiens) (UniProt P11387)
Sequence (whole entry): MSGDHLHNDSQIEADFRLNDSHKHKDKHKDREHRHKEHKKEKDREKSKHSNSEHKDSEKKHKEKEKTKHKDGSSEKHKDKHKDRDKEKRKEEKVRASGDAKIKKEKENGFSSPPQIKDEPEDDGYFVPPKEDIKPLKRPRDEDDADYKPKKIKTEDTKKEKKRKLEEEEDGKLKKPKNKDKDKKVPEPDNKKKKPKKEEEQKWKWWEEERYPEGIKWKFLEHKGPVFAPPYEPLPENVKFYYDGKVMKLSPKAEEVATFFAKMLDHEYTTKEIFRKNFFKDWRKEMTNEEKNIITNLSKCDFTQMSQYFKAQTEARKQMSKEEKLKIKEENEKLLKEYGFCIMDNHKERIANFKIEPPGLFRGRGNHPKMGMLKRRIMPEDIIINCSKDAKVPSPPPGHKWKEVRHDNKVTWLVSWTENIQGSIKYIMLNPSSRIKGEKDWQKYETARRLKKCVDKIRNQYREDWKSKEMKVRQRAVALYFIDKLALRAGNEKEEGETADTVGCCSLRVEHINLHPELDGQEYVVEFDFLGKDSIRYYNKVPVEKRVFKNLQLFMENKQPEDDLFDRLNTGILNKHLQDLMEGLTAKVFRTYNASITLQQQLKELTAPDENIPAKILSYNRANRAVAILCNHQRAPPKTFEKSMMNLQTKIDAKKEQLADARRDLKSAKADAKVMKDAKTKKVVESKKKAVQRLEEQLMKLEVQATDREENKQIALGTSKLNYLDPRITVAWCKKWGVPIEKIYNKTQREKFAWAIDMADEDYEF
assay-overview: Inhibition of recombinant topoisomerase 1 (unknown origin) assessed as DNA cleavage using 3'-[32P]-labeled 117-bp DNA oligonucleotide at 1 uM by PAGE assay
Set-up: scale not given: the % may be the effect or the level left
Record the value in %, omitting the unit from your answer.

Look over these answered cases.
Recorded Activity for O=C1c2ccccc2-c2c1c1ccc([N+](=O)[O-])cc1c(=O)n2C[C@H](O)CO , please? 100

Would you kindly share the measured Activity for N#Cc1ccc2c3c(n(C[C@H](O)CO)c(=O)c2c1)-c1ccccc1C3=O ? 20

New cases:
// Activity lookup, key: O=C1c2ccccc2-c2c1c1ccc(Cl)cc1c(=O)n2CCCn1ccnc1 75

Request the reported Activity associated with N#Cc1ccc2c3c(n(CCCn4ccnc4)c(=O)c2c1)-c1ccccc1C3=O 50

I'd like to know its Activity. The compound in question is O=C1c2ccccc2-c2c1c1ccncc1c(=O)n2CCCN1CCOCC1 50

Value lookup for Activity; key = CC[C@@]1(O)C(=O)OCc2c1cc1n(c2=O)Cc2cc3c(CN(C)C)c(O)ccc3nc2-1 100

I would be grateful if you could share the reported Activity for O=C1c2ccccc2-c2c1c1ccc(Cl)cc1c(=O)n2C[C@H](O)CO . 50

Reported Activity, compound O=C1c2ccccc2-c2c1c1ccc(Cl)cc1c(=O)n2CCCN1CCOCC1 : ____ 50

Requested field: Activity. Item: COC(=O)c1ccc2c3c(n(C[C@H](O)CO)c(=O)c2c1)-c1ccccc1C3=O 20

Which Activity value belongs to CSc1ccc2c3c(n(CCCn4ccnc4)c(=O)c2c1)-c1ccccc1C3=O ? 20
